B1: Dystrobrevin alpha, residues 235 to 294; numbered along this chain, Q9Y4J8 (parent)
chain: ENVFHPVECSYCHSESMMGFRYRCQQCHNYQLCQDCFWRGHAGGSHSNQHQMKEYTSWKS

Variants of: B1
Experiment: abundance fitness (aPCA) (normalised: wild type 0, dead -1); higher = more abundant; growth selection in yeast, the domain comes from the species named
Conditions: Homo sapiens
Would you mind telling me the reported abundance fitness of each entry?
Give your answer as a number; write no unit.

Qu. // returns reported abundance fitness for input "V7K"
Ans. -0.086

Qu. GET /values?readout=abundance fitness&item= "M18V"
Ans. 0.155

Qu. // lookup abundance fitness for "H46I"
Ans. -0.366

Qu. What does the record list as abundance fitness for "K59L" ?
Ans. -0.013

Qu. Quick check: abundance fitness of "K53V" ?
Ans. 0.137

Qu. Entry "S57F" has what abundance fitness?
Ans. -0.391

Qu. abundance fitness for "V7S" ?
Ans. 0

Qu. Recorded abundance fitness for "C33T" , please?
Ans. -0.944

Qu. Can you share its abundance fitness? I mean this variant: "C9H"
Ans. -1.26

Qu. State the recorded abundance fitness for this entry: "V3P"
Ans. 0.083

Qu. GET /values?readout=abundance fitness&item= "P6E"
Ans. -0.045
